Numbers sourced from patent EP1660440B1.

- Tested on: Pancreatin
- experimentalProtocol: Pancreatin stability
- Format: in vitro ADME, porcine
- conditionParameters: 1 % (w/v) pancreatin, 5 µM, pH 7.5, 37 °C, after 60 min
observable: % of Prodrug Remaining (%)
Entry rule: numbers only, all in %.

- compound: "CC(C)C(=O)OC(OC(=O)NC[C@H](CC(=O)[O-])c1ccc(Cl)cc1)C1CCCCC1.[Na+] (stereo partly shown)"
  measuredOn: "Pancreatin"
  observable: "% of Prodrug Remaining"
  number: 47

Q: Please look up its % of Prodrug Remaining: "CC(C)CC(=O)OCOC(=O)NC[C@H](CC(=O)[O-])c1ccc(Cl)cc1.[Na+]"
A: 46

Q: What measured % of Prodrug Remaining goes with "O=C([O-])C[C@@H](CNC(=O)OCOC(=O)c1ccccc1)c1ccc(Cl)cc1.[Na+]" ?
A: 15

Q: # input compound: CC(C)C(=O)OC(OC(=O)NC[C@H](CC(=O)[O-])c1ccc(Cl)cc1)C(C)C.[Na+] (stereo partly shown) ; wanted: its % of Prodrug Remaining
A: 22

----------
- conditionParameters: human, plasma, 1 h, 2 µM
observable: % of Prodrug Remaining (%)
Give the number; % is assumed, so skip it.

In the examples that follow, each entry is paired with its recorded % of Prodrug Remaining.
- compound: "CCC[C@H](OC(=O)NC[C@H](CC(=O)[O-])c1ccc(Cl)cc1)OC(=O)C(C)C.[Na+]"
  % of Prodrug Remaining [%]: 83
- compound: "CC(=O)OC(OC(=O)NC[C@H](CC(=O)[O-])c1ccc(Cl)cc1)C(C)C.[Na+] (stereo partly drawn)"
  % of Prodrug Remaining [%]: 96
- compound: "CC(C)C(=O)OC(OC(=O)NC[C@H](CC(=O)[O-])c1ccc(Cl)cc1)C(C)C.[Na+] (stereo partly drawn)"
  % of Prodrug Remaining [%]: 93
- compound: "CCCC(=O)OC(OC(=O)NC[C@H](CC(=O)[O-])c1ccc(Cl)cc1)C1CCCCC1.[Na+] (stereo partly drawn)"
  % of Prodrug Remaining [%]: 95
- compound: "CC(=O)OCOC(=O)NC[C@H](CC(=O)[O-])c1ccc(Cl)cc1.[Na+]"
  % of Prodrug Remaining [%]: 64

Next up:
Q: Given the compound "O=C([O-])C[C@@H](CNC(=O)OCOC(=O)c1ccccc1)c1ccc(Cl)cc1.[Na+]" , what is its reported % of Prodrug Remaining?
A: 95

----------
Reported Papp B→A at 200 µM values are given for each entry in this list.
- experimentalProtocol: Caco-2 cellular permeability of prodrugs
- conditionParameters: human
Write the number in ×10⁻⁶ cm/s without appending the unit.

- compound: "CC(C)C(OC(=O)NC[C@H](CC(=O)O)c1ccc(Cl)cc1)OC(=O)C(C)(C)C (some centres unmarked)"
  resultUnits: "×10⁻⁶ cm/s"
  Papp B→A at 200 µM: 18

Then there is this compound:
Q: Returns the measured Papp B→A at 200 µM for the input compound. Input: CCCC(=O)OC(OC(=O)NC[C@H](CC(=O)O)c1ccc(Cl)cc1)C(C)C (some centres unmarked)
A: 9.4

----------
- conditionParameters: human, s9, 1 h, 2 µM
observable: % of Prodrug Remaining (%)
The response must be a number in % with no trailing unit.

Example compounds with recorded % of Prodrug Remaining:
- compound: "O=C([O-])C[C@@H](CNC(=O)OCOC(=O)c1ccccc1)c1ccc(Cl)cc1.[Na+]"
  % of Prodrug Remaining (%): 1
- compound: "CC(=O)OCOC(=O)NC[C@H](CC(=O)[O-])c1ccc(Cl)cc1.[Na+]"
  % of Prodrug Remaining (%): 1
- compound: "CC(C)C(=O)O[C@H](C)OC(=O)NC[C@H](CC(=O)[O-])c1ccc(Cl)cc1.[Na+]"
  % of Prodrug Remaining (%): 3
- compound: "CC(C)CC(=O)OCOC(=O)NC[C@H](CC(=O)[O-])c1ccc(Cl)cc1.[Na+]"
  % of Prodrug Remaining (%): 1
- compound: "O=C([O-])C[C@@H](CNC(=O)OCOC(=O)c1cccs1)c1ccc(Cl)cc1.[Na+]"
  % of Prodrug Remaining (%): 1

Q: Please report the recorded % of Prodrug Remaining for CC(C)C(=O)OC(OC(=O)NC[C@H](CC(=O)[O-])c1ccc(Cl)cc1)C1CCCCC1.[Na+] (some centres unmarked) .
A: 2

Q: Give the measured % of Prodrug Remaining of "CC(C)(C)C(=O)OCOC(=O)NC[C@H](CC(=O)[O-])c1ccc(Cl)cc1.[Na+]" .
A: 1

Q: Record request: % of Prodrug Remaining value, item CC(=O)OC(OC(=O)NC[C@H](CC(=O)[O-])c1ccc(Cl)cc1)C(C)C.[Na+] (some centres unmarked)
A: 4
